Hi there, I'd appreciate the recorded Papp for every entry that follows.
test: in vitro; conditions: human, Caco-2, Caco-2 (cm/sec)
*1 amine or outer side, *2 acyl side, *3 side chain or, on linkers, in order; H or OH if unused. Where a SMILES comes first, the peptide text is derived from it. Bridges are numbered along the chain shown (N, C = ends). [ ]: non-standard residue; d: D form. The star is where a group is joined. NMePhe(3-Cl) = CN[C@@H](Cc1cccc(Cl)c1)C(=O)O; X7 = O=C(C[C@H](COCCO)N[*:1])[*:2]; NMeF = CN[C@@H](Cc1ccccc1)C(=O)O; NMeGABA = CN(CCCC(=O)[*:2])[*:1]; NMeL = CN[C@@H](CC(C)C)C(=O)O; Piperidide = C1CCN(*)CC1; Bn = c1ccc(C*)cc1; Sar = CNCC(=O)O; tBu = CC(C)(C)*
Answer in ×10⁻⁶ cm/s, number only, no unit symbol.

Prompt line: Need Papp of CC(C)C[C@H]1C(=O)N[C@@H]([C@@H](C)O)C(=O)N(C)CC(=O)N(C)[C@@H](Cc2ccccc2)C(=O)N(C)[C@@H](CC(C)C)C(=O)N[C@@H](COC(C)(C)C)C(=O)N(C)[C@@H](CC(C)C)C(=O)N[C@H](C(=O)N2CCCCC2)CC(=O)N(C)CC(=O)N(C)[C@@H](Cc2ccccc2)C(=O)N[C@@H](COCc2ccccc2)C(=O)N1C [pd177] ([Sar][NMeF]S(Bn)[NMeL]T[Sar][NMeF][NMeL]S(tBu)[NMeL]D-Piperidide; lactam N-11) , thanks.
Response line: 3

Prompt line: Also CC[C@H](C)[C@@H]1NC(=O)[C@H](CC(C)C)N(C)C(=O)CCCN(C)C(=O)C[C@@H](C(=O)N2CCCCC2)NC(=O)[C@H](CC(C)C)N(C)C(=O)[C@H](CC(C)C)N(C)C(=O)[C@H]([C@@H](C)O)NC(=O)[C@H](CC(C)C)N(C)C(=O)C[C@H](COCCO)NC(=O)[C@H](CC(C)C)N(C)C(=O)[C@H](Cc2cccc(Cl)c2)N(C)C1=O [AP22] ([NMeGABA][NMeL]I[NMePhe(3-Cl)][NMeL][X7][NMeL]T[NMeL][NMeL]D-Piperidide; lactam N-11) ?
Response line: 0.23
